Every entry's value here was drawn from paper PMC8151276.

study.target: HTR1B (Homo sapiens, UniProt P28222)
Construct: purchased Promega (in-house HiBiT-GPCR construct library, NanoBRET)
Sequence (P28222 whole entry): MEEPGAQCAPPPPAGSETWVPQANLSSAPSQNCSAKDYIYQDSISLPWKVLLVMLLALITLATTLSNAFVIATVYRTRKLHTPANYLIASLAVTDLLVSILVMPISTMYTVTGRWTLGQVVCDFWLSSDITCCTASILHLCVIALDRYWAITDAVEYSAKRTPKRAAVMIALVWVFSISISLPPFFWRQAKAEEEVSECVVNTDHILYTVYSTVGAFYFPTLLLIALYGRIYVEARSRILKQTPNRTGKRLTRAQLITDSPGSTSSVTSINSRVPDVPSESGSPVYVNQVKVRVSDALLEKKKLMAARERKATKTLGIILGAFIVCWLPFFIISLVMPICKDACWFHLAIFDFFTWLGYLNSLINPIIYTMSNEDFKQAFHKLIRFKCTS
measurement.description: NanoBRET screen HiBiT-HTR1B in HEK293
Assay type: binding
measurement.conditions: HTR1B; tracer 0.1μM
Experimental: Each tracer candidate was screened across the entire library of HiBiT-GPCR constructs using NanoBRET as the detection modality. As depicted in Figure 4A, the specificity of interactions was evaluated through decrease in BRET due to competitive displacement of a bound tracer by excess parental compound. Each tracer was analyzed for binding to each HiBiT-GPCR fusion in the absence and in the presence of competing parental compound. […]
assay.readout: NanoBRET Fold Response
Lab note: record just the number, no unit beside it.

Look up NanoBRET Fold Response for this compound: N#CN=C(NCCCOc1cccc(CN2CCCCC2)c1)NCCNC(=O)CCOCCOCCOCCOCCNC(=O)CCc1ccc2n1[B-](F)(F)[N+]1=C(c3ccc[nH]3)C=CC1=C2 [Aminopotentidine-2-NB590] 0.98

Look up NanoBRET Fold Response for this compound: O=C(CCc1ccc2n1[B-](F)(F)[N+]1=C(c3ccc[nH]3)C=CC1=C2)NCCOCCOCCNC(=O)OCCOCCN1CCN(C2=Nc3ccccc3Sc3ccccc32)CC1 [Quetiapine-a-2-NB590] 1.03

Look up NanoBRET Fold Response for this compound: CC(C)N(CC[C@H](c1ccccc1)c1cc(CCNC(=O)CCOCCOCCOCCOCCNC(=O)CCc2ccc3n2[B-](F)(F)[N+]2=C(c4ccc[nH]4)C=CC2=C3)ccc1O)C(C)C [Tolterodine-2-NB590] 0.79

Look up NanoBRET Fold Response for this compound: Cc1nc2n(c(=O)c1CCN1CCC(c3noc4cc(F)ccc34)CC1)CCCC2OC(=O)NCCOCCOCCOCCOCCNC(=O)CCc1ccc2n1[B-](F)(F)[N+]1=C(c3ccc[nH]3)C=CC1=C2 (centres unmarked) [Risperidone-2-NB590] 3.33

Look up NanoBRET Fold Response for this compound: O=C(CCOCCOCCOCCOCCNC(=O)CCc1ccc2n1[B-](F)(F)[N+]1=C(c3ccc[nH]3)C=CC1=C2)NCCCN1CCN(C2=Nc3ccccc3Oc3ccc(Cl)cc32)CC1 [Loxapine-a-2-NB590] 2.42

Look up NanoBRET Fold Response for this compound: CC(C)N(CC[C@H](c1ccccc1)c1cc(CCNC(=O)c2ccc(CNC(=O)CCc3ccc4n3[B-](F)(F)[N+]3=C(c5ccc[nH]5)C=CC3=C4)cc2)ccc1O)C(C)C [Tolterodine-BZ-NB590] 1.12

Look up NanoBRET Fold Response for this compound: COc1ccccc1N1CCN(CCCCN2C(=O)c3ccc(CNC(=O)CCOCCNC(=O)c4ccc(CNC(=O)CCc5ccc6n5[B-](F)(F)[N+]5=C(c7ccc[nH]7)C=CC5=C6)cc4)cc3C2=O)CC1 [NAN-190-3-NB590] 1.38

Look up NanoBRET Fold Response for this compound: Cc1cc2c(s1)Nc1ccccc1N=C2N1CCN(CCCNC(=O)CCOCCOCCOCCOCCNC(=O)CCc2ccc3n2[B-](F)(F)[N+]2=C(c4ccc[nH]4)C=CC2=C3)CC1 [Olanzapine-a-2-NB590] 2.53

Look up NanoBRET Fold Response for this compound: COc1ccccc1N1CCN(CCCCN2C(=O)c3ccc(CNC(=O)CCOCCOCCOCCOCCNC(=O)CCc4ccc5n4[B-](F)(F)[N+]4=C(c6ccc[nH]6)C=CC4=C5)cc3C2=O)CC1 [NAN-190-2-NB590] 1.73

Look up NanoBRET Fold Response for this compound: O=C(CCc1ccc2n1[B-](F)(F)[N+]1=C(c3ccc[nH]3)C=CC1=C2)NCc1ccc(C(=O)NCCOCCC(=O)N[C@@H]2CC[C@@]3(O)[C@H]4Cc5ccc(O)c6c5[C@@]3(CCN4CC3CC3)[C@H]2O6)cc1 [Naltrexone-3-NB590] 1.01

Look up NanoBRET Fold Response for this compound: CCCn1c(=O)c2[nH]c(-c3ccc(OCC(=O)NCCNC(=O)CCOCCNC(=O)c4ccc(CNC(=O)CCc5ccc6n5[B-](F)(F)[N+]5=C(c7ccc[nH]7)C=CC5=C6)cc4)cc3)nc2n(CCC)c1=O [XAC-3-NB590] 0.66
